# pIC50 values compiled below
system: PC-3; experiment: Cytotoxicity against human PC3 cells assessed as cell growth inhibition after 24 hrs by MTT assay; format: functional, cell-based; conditions: PC-3, 24 h
pIC50: −log10 of the molar value.

Prompt line: Write down the reported pIC50 of `COc1ccc([C@@H]2C[C@@H](O)C[C@H]3c4cc(OCc5cc(F)cc(F)c5)c(OCc5cc(F)cc(F)c5)cc4CCN23)cc1OC` , test system: PC-3.
Response line: 5.77

Prompt line: Param readout= pIC50; system= PC-3; entry= `Oc1cc2c(cc1O)[C@@H]1C[C@@H](O)C[C@@H](c3ccccc3)N1CC2` ; returns value.
Response line: < 4.70

Prompt line: // fetch PC-3 pIC50 for `C[C@@H]1C[C@@H](O)C[C@H]2c3cc(OCc4cc(F)cc(F)c4)c(OCc4cc(F)cc(F)c4)cc3CCN12`
Response line: 5.87

Prompt line: Lookup: pIC50 / PC-3 / `C[C@@H]1C[C@H](O)C[C@H]2c3cc(OCc4cc(C(F)(F)F)cc(C(F)(F)F)c4)c(OCc4cc(C(F)(F)F)cc(C(F)(F)F)c4)cc3CCN12`
Response line: 6.17

Prompt line: # query: pIC50 | item `COc1cc2c(cc1OC)[C@@H]1C[C@@H](O)C[C@@H](c3ccccc3)N1CC2` | system: PC-3
Response line: < 4.70

Prompt line: Reported pIC50 for PC-3, given `O[C@H]1C[C@@H](c2ccc(-c3ccccc3)cc2)N2CCc3cc(OCc4ccccc4)c(OCc4ccccc4)cc3[C@@H]2C1` ?
Response line: < 4.70

New cases:
Prompt line: For PC-3, provide pIC50 of `COc1ccc([C@@H]2C[C@H](O)C[C@H]3c4cc(OCc5cc(F)cc(F)c5)c(OCc5cc(F)cc(F)c5)cc4CCN23)cc1OC` please.
Response line: < 4.70

Prompt line: Could you share what pIC50 was measured for O=C1C[C@@H](c2ccccc2)N2CCc3cc4c(cc3[C@@H]2C1)OCO4 (relative stereo) , tested on PC-3?
Response line: < 4.70

Prompt line: Notebook: pull reported pIC50 for PC-3, entry `CCC[C@@H]1C[C@H](O)C/C=C(/CC)[C@H]2c3cc(OCc4ccccc4)c(OCc4ccccc4)cc3CCN12`
Response line: < 4.70

Prompt line: Lab request: please report pIC50 under test system PC-3 for `CCCCCCOc1cc2c(cc1OCCCCCC)[C@@H]1C[C@@H](O)C[C@@H](C)N1CC2`
Response line: < 4.70

Prompt line: API: value(readout=pIC50, system=PC-3) for record `COc1cc([C@@H]2C[C@@H](O)C[C@H]3c4cc(OCc5ccccc5)c(OCc5ccccc5)cc4CCN23)cc(OC)c1OC`
Response line: < 4.70

Prompt line: Short answer please: pIC50, PC-3, entry `O[C@H]1C[C@@H](c2ccccc2)N2CCc3cc(OCc4ccccc4)c(OCc4ccccc4)cc3[C@@H]2C1`
Response line: < 4.70

Prompt line: Report pIC50 for C[C@@H]1CC(=O)C[C@H]2c3cc(OCc4ccccc4)c(OCc4ccccc4)cc3CCN12 (relative stereo) tested on PC-3.
Response line: 5.64

Prompt line: Hi! What's the reported pIC50 for `CCCCCCOc1cc2c(cc1OCCCCCC)[C@@H]1C[C@H](O)C[C@@H](C)N1CC2` on PC-3?
Response line: < 4.70

These data points were gathered from ChEMBL document CHEMBL4425094.
